B1: CPEB3 Ribozyme (parent)
chain: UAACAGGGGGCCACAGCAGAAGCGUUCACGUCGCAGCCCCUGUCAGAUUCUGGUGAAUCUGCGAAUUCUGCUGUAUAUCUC

variants of: B1; assay: self-cleavage, relative activity (ratio to wild type); higher = more cleavage; in vitro, sequencing
I'd appreciate it if you could label each record using self-cleavage and these ranges: low (below 0.2), intermediate (0.2 to below 0.4), high (0.4 or more)

Query: Hi there! Could you help me figure out the category for A57G U80G please?
Result: high

Query: Hi there! Could you help me figure out the category for A65G C81A please?
Result: high

Query: Hi there! Could you help me figure out the category for A28U U60G please?
Result: low

Query: Hi there! Could you help me figure out the category for U1G A28C please?
Result: high

Query: Hi there! Could you help me figure out the category for A2U A13U please?
Result: high

Query: Hi there! Could you help me figure out the category for G22U U67C please?
Result: low

Query: Hi there! Could you help me figure out the category for C38A A45U please?
Result: intermediate

Query: Hi there! Could you help me figure out the category for G24A U43A please?
Result: low

Query: Hi there! Could you help me figure out the category for A5C A64U please?
Result: high

Query: Hi there! Could you help me figure out the category for A2G G24A please?
Result: intermediate

Query: Hi there! Could you help me figure out the category for A56G U80G please?
Result: high

Query: Hi there! Could you help me figure out the category for C44U U72A please?
Result: low

Query: Hi there! Could you help me figure out the category for A3G U69C please?
Result: high

Query: Hi there! Could you help me figure out the category for U25A U54A please?
Result: intermediate

Query: Hi there! Could you help me figure out the category for C17U G46U please?
Result: intermediate

Query: Hi there! Could you help me figure out the category for G6A A57U please?
Result: intermediate

Query: Hi there! Could you help me figure out the category for A18U A28C please?
Result: low

Query: Hi there! Could you help me figure out the category for U1C U31C please?
Result: high

Query: Hi there! Could you help me figure out the category for A18C A28C please?
Result: high

Query: Hi there! Could you help me figure out the category for G61C U72C please?
Result: intermediate

Query: Hi there! Could you help me figure out the category for A56U U69G please?
Result: high

Query: Hi there! Could you help me figure out the category for G9A G24A please?
Result: intermediate

Query: Hi there! Could you help me figure out the category for U60A A75G please?
Result: high

Query: Hi there! Could you help me figure out the category for U25A U58G please?
Result: low

Query: Hi there! Could you help me figure out the category for A20G U66G please?
Result: intermediate

Query: Hi there! Could you help me figure out the category for G36A C71U please?
Result: low

Query: Hi there! Could you help me figure out the category for A20U U41A please?
Result: intermediate

Query: Hi there! Could you help me figure out the category for G24U A45C please?
Result: intermediate

Query: Hi there! Could you help me figure out the category for U25A C29G please?
Result: intermediate

Query: Hi there! Could you help me figure out the category for C71A U80A please?
Result: intermediate

Query: Hi there! Could you help me figure out the category for A5U C32U please?
Result: intermediate

Query: Hi there! Could you help me figure out the category for U1C U54A please?
Result: high

Query: Hi there! Could you help me figure out the category for C4U A15G please?
Result: high

Query: Hi there! Could you help me figure out the category for A45G U49A please?
Result: high

Query: Hi there! Could you help me figure out the category for A5G G8U please?
Result: high

Query: Hi there! Could you help me figure out the category for A18U U67G please?
Result: low

Query: Hi there! Could you help me figure out the category for A45C U69A please?
Result: low

Query: Hi there! Could you help me figure out the category for A18G A28G please?
Result: intermediate

Query: Hi there! Could you help me figure out the category for U51C C59A please?
Result: intermediate

Query: Hi there! Could you help me figure out the category for C44A U54A please?
Result: high

Query: Hi there! Could you help me figure out the category for C34U A75G please?
Result: low

Query: Hi there! Could you help me figure out the category for U25C U74C please?
Result: intermediate
